B1: tRNA (parent)
chain: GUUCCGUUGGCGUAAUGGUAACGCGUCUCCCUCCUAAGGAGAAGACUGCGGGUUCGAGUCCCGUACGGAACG

- Variants of: B1
- ASSAY_PROCEDURE: yeast fitness relative to wild type (ratio to wild type); higher = fitter; tRNA-Arg(CCU), competitive growth, 37 C, YPD
Fewer inactive variants are shown than the library holds.
Outcome: label 1 for yeast fitness of at least 0.6; label 0 for anything lower.

GUUCCGUUGGCGUAAUGGUUACGCGUCUCCCUCCUAAGGUGAAGACUGCGGGUUCGAGUCCCGUACGGUACG :: label 1
GUUCCGUUGGCGUAAUGGUAACGCGUCUCCCCCCUAAGGUGAGGACUGCGGGUUCGAGUCCCGUACGGAACG :: label 1
GUUCCGUCCGCGUAAUGGUAACGCGUCUCCCUCCUAAGGAGAAGACUGUGGGUUCGAGUCCCGUACGUAACG :: label 0
GUUCCGAUGCCGUAAUGGUAACGCGUGUCCCACCUAAGGAGAAGACUGCGGGUUCGAGUCCCGUACGGAACG :: label 0
GUUCGGUUGGCGUAAUGGUAACGCAUCUCCCUCCUAAGGAGAAGACUGCGGGUUCGAGUCCCGUACGGUACG :: label 1
GUUCCGUUGGCGUAUUGGUAACGCGUCUCCCUCCUAAGGAGAAGACUGCGGGUUCGAGUCCCGUAUGGUACG :: label 0
GUUCCCUUGGCGUAAUGGUAACGCGUCUCCCUCCUAAGGAGAAGACUGCGGCUUCGUGUCCCGUACGGAACG :: label 0
GUUCUGUUGGGGUAAUGGUAACGCGUCUCCCUCUUAAGGAGCAGACUGCGGGUUCGAGUCACGUACGGAUCG :: label 0

With those in mind, consider the next variant.
*Q* Dear colleague, could you confirm whether GUUUCGUUGGCGUAAUGGUAACGCGUCUCCCUCCUAAGGAGAAGACUGCGGGUUCGAGACCCGUACGGAACG has yeast fitness at or above 0.6?
*A* label 1
